The reported numbers originate from patent US20230150920A1.

Test: Solubility estimate by adding solvent aliquots to weighed solid, dissolution judged visually
Settings: tetrahydrofuran, organic solvent or mixture, thermodynamic from solid
Counter-ions that a name gives are not always drawn.
Assay Metric: solubility

INSERT INTO measurements (compound, assay_metric, result) VALUES
  ('COc1cc(CCN)c(OC)cc1Br [2C-B.HCl]', 'solubility', '< 2000 µg/mL');

###

Assay: Estimated solubilities of 2C-B HCl in solvents
Settings: THF, organic solvent or mixture, thermodynamic from solid
Assay Metric: solubility

INSERT INTO assay_data (molecule, assay_metric, result) VALUES
  ('COc1cc(CCN)c(OC)cc1Br.Cl [2C-B HCl, 4-bromo-2,5-dimethoxyphenethylamine HCl]', 'solubility', '< 2000 µg/mL');
